- target.entity: His tagged CRBN+DDB−DLS7+CXU4 (Homo sapiens (Human), UniProt Q96SW2)
- Sequence (Q96SW2 whole entry): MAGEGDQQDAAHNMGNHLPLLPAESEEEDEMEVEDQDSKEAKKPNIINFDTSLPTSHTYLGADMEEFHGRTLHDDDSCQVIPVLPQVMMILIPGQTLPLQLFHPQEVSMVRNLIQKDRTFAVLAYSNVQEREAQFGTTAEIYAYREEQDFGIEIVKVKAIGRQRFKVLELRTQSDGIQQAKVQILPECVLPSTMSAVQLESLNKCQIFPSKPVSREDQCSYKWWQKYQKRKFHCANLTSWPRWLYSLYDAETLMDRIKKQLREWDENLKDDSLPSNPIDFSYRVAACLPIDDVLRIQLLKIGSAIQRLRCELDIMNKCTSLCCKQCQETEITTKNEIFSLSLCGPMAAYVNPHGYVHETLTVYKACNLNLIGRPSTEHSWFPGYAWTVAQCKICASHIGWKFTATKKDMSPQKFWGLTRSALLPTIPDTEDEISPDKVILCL
- Sequence (Q16531 whole entry partner): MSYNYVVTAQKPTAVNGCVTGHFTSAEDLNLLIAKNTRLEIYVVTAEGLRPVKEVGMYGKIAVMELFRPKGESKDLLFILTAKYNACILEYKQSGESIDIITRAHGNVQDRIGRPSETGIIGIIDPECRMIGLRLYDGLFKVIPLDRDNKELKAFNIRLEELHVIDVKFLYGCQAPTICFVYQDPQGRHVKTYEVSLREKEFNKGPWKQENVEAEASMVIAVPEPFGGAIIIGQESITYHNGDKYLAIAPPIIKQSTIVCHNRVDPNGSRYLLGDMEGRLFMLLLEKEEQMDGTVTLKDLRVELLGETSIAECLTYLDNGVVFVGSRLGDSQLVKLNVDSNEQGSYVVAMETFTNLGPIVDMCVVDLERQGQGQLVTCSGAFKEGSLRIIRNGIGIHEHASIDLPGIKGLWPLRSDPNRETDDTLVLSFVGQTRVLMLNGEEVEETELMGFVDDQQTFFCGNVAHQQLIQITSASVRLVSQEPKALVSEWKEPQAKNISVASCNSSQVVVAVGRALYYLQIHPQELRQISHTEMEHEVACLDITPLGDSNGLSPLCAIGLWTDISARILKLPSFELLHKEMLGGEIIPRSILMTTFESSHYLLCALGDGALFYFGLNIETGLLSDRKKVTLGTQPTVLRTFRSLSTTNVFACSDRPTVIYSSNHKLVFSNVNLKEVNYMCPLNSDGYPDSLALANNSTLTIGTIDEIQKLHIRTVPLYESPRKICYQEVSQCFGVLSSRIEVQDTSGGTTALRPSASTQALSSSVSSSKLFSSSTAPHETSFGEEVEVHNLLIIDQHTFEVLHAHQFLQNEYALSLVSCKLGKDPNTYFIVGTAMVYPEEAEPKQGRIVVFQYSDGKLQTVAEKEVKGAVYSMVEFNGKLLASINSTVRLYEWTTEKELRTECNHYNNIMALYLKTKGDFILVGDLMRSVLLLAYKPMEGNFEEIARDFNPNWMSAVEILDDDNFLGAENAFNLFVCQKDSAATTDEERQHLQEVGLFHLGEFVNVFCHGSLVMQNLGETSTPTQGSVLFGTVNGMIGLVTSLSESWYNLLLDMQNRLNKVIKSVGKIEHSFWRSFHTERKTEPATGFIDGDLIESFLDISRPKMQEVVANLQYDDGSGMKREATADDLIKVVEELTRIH
- protocol.details: IC50 Measurements for Binding to CRBN/DDBI (HTRF)
- measurement.parameters: Cy5-labeled Thalidomide probe, one hour incubation
quantity: IC50

Please review the entries below; each comes with its answer.
Return reported IC50; argument: O=C1CC[C@H](N2Cc3c4c(cc(Cl)c3C2=O)C2(CCN(Cc3ccccc3)CC2)CO4)C(=O)N1
500 to 1000 nM

// repeat for Cn1cc(-c2cccc(CN3CCC4(CC3)COc3c4cc(F)c4c3CN([C@H]3CCC(=O)NC3=O)C4=O)c2)cn1 and report
100 to 500 nM

Would you mind doing O=C1CC[C@H](N2Cc3c(ccc4c3OCC43CCN(Cc4ccc5[nH]ncc5c4)CC3(F)F)C2=O)C(=O)N1 (stereo partly drawn) as well?
100 to 500 nM

Further cases:
Sample O=C1CC[C@H](N2Cc3c(ccc4c3OCC43CCN(Cc4cn(-c5ccc(Cl)cc5)nc4C(F)(F)F)CC3)C2=O)C(=O)N1 — what was its IC50?
100 to 500 nM

Further, for [2H]C([2H])(c1ccc2cnn(C)c2c1)N1CCC2(CC1)COc1c2ccc2c1CN([C@H]1CCC(=O)NC1=O)C2=O ?
100 to 500 nM

Can you check O=C1CC[C@H](N2Cc3c(ccc4c3OCC43CCN(Cc4cn(-c5ccc(Cl)cc5)nc4Cl)CC3)C2=O)C(=O)N1 next?
500 to 1000 nM

###

# Lookup of reported DC50 keyed by entry
- target.entity: IKZF2 (Homo sapiens (Human), UniProt Q96SW2+Q9UKS7)
- Sequence (Q9UKS7 whole entry): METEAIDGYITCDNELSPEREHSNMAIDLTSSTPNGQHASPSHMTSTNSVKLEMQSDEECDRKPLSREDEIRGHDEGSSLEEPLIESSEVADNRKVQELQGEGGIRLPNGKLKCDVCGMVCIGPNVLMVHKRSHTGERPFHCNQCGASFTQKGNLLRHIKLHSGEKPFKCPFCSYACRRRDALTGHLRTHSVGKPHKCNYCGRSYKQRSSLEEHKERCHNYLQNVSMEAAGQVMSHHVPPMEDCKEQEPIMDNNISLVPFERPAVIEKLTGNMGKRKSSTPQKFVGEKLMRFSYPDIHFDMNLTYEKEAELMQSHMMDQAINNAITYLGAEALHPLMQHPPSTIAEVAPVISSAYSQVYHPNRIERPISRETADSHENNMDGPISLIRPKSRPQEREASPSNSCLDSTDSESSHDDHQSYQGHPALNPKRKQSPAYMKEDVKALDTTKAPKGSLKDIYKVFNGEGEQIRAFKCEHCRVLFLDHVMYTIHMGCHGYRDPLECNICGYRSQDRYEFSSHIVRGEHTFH
- Sequence (Q96SW2 whole entry): as the sequence (Q96SW2 whole entry) above
- Sequence (Q16531 whole entry partner): as the sequence (Q16531 whole entry partner) above
- protocol.details: IKZF2 HiBiT Assay (Jurkat-IKZF2-HiBiT cell line)
- Type: cell-based
- measurement.parameters: Jurkat-IKZF2-HiBiT cells, 24 hours; read-out: HiBit assay degradation analysis DC50

Record excerpt, results attached:
Need DC50, item O=C1CCC(N2Cc3c(ccc4c3OCC43CCN(Cc4cnc5[nH]ccc5c4)CC3)C2=O)C(=O)N1 (stereo not drawn)
< 50 nM

Another compound: O=C1CCC(N2Cc3c(ccc4c3OCC43CCN(Cc4cccc(-c5ncon5)c4)CC3)C2=O)C(=O)N1 (stereo not drawn)
50 to 200 nM

Consider the additional compound presented here.
// returns reported DC50 for input O=C1CCC(N2Cc3c(ccc4c3OCC43CCN(Cc4ncnn4-c4ccccc4)CC3)C2=O)C(=O)N1 (stereo not drawn)
> 500 nM

###

- target.entity: IKZF1 (Homo sapiens (Human), UniProt Q13422+Q96SW2)
- Sequence (Q13422 whole entry): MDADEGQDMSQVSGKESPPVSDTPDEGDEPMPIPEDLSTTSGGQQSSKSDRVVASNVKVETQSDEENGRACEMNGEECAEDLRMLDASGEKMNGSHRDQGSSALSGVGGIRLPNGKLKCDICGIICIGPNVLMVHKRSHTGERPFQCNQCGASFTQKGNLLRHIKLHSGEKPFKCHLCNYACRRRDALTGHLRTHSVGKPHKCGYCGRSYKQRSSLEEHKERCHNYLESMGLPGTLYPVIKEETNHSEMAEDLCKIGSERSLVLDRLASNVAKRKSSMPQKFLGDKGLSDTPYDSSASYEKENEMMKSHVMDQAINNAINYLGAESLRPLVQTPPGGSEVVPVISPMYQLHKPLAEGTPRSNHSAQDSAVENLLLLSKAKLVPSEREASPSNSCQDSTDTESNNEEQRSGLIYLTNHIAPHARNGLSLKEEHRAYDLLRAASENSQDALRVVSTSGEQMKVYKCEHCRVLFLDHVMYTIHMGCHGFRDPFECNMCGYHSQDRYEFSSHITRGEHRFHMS
- Sequence (Q96SW2 whole entry): as the sequence (Q96SW2 whole entry) above
- Sequence (Q16531 whole entry partner): as the sequence (Q16531 whole entry partner) above
- protocol.details: IKZF1 HiBit Assay (HEK293T Flp-in-HiBiT-IKZF1 stable cell line)
- Assay type: cell-based
- measurement.parameters: HEK293T Flp-in-HiBiT-IKZF1 cells, 6 hrs; read-out: IKZF1 HiBit degradation DC50
quantity: DC50

Solved cases (5 shown):
For O=C1CCC(N2Cc3c(ccc4c3OCC43CCN(Cc4ccccc4)CC3O)C2=O)C(=O)N1 (stereo not drawn) , what is its reported DC50?
> 1000 nM

// same read-out, input: N#Cc1ccc(-n2cc(CN3CCC4(COc5c4ccc4c5CN([C@H]5CCC(=O)NC5=O)C4=O)C(F)(F)C3)cn2)cc1 (stereo partly drawn)
> 1000 nM

One more molecule: O=C1CC[C@@H](N2Cc3c(ccc4c3OCC43CCN(Cc4cccc(-c5cnn(C6COC6)c5)c4)CC3)C2=O)C(=O)N1
> 1000 nM

Please answer likewise for Cn1ncc2cc(CN3CCC4(COc5c4ccc4c5CN([C@H]5CCC(=O)NC5=O)C4=O)C(F)(F)C3)ccc21 (stereo partly drawn)
> 1000 nM

Please give the result for O=C1CC[C@H](N2Cc3c(ccc4c3OCC43CCN(Cc4cnn(-c5ccc(Cl)cc5)c4C(F)(F)F)CC3)C2=O)C(=O)N1 too.
100 to 1000 nM

Others:
Please give the measured DC50 for this molecule: O=C1CCC(N2Cc3c(ccc4c3OCC43CCN(Cc4ccccc4)CC3(F)F)C2=O)C(=O)N1 (stereo not drawn)
1 to 10 nM

###

- target.entity: IKZF2 (Homo sapiens (Human), UniProt Q96SW2+Q9UKS7)
- protocol.details: IKZF2 HiBiT Assay (Jurkat-IKZF2-HiBiT cell line)
- Assay type: cell-based
- measurement.parameters: Jurkat-IKZF2-HiBiT cells, 24 hours; read-out: HiBit assay degradation analysis Dmax
quantity: Dmax

Can you look up the measured Dmax of O=C1CCC(N2Cc3c(ccc4c3OCC43CCN(Cc4cc(F)cc5ccoc45)CC3)C2=O)C(=O)N1 (stereo not shown) [Compound A117] for me?
40 to 60%

Same question for O=C1CCC(N2Cc3c(ccc4c3OCC43CCN(Cc4cccc5ccsc45)CC3)C2=O)C(=O)N1 (stereo not shown) [Compound A189] please.
60 to 80%

Would you kindly repeat that for O=C1CCC(N2Cc3c(ccc4c3OCC43CCN(Cc4cccc(C(F)F)c4)CC3)C2=O)C(=O)N1 (stereo not shown) [Compound A94] ?
40 to 60%

With those in mind, consider the next compound.
I am curious: what Dmax value has been reported for O=C1CCC(N2Cc3c(ccc4c3OCC43CCN(Cc4ccc5cn[nH]c5c4)CC3)C2=O)C(=O)N1 (stereo not shown) [Compound A56] ?
60 to 80%

###

- target.entity: IKZF2 (Homo sapiens (Human), UniProt Q96SW2+Q9UKS7)
- protocol.details: IKZF2 HiBiT Assay (Jurkat-IKZF2-HiBiT cell line)
- Type: cell-based
- measurement.parameters: Jurkat-IKZF2-HiBiT cells, 24 hours; read-out: HiBit assay degradation analysis Dmax
quantity: Dmax

Recorded Dmax, per entry:
Checklist item: Dmax tested on IKZF2 (Homo sapiens (Human), UniProt Q96SW2+Q9UKS7), entry O=C1CC[C@H](N2Cc3c(ccc4c3OCC43CCN(Cc4cccc(-c5cc[nH]n5)c4)CC3)C2=O)C(=O)N1 , value?
60 to 80%

O=C1CCC(N2Cc3c(ccc4c3OCC43CCN(Cc4cc(F)cc(F)c4)CC3)C2=O)C(=O)N1 (stereo not shown) ?
40 to 60%

Do the same for O=C1CC[C@H](N2Cc3c(ccc4c3OCC43CCN(Cc4cccc(-c5cnn(C(F)F)c5)c4)CC3)C2=O)C(=O)N1 please
> 80%

Next: O=C1CCC(N2Cc3c(ccc4c3OCC43CCN(Cc4ccc5[nH]cnc5c4)CC3)C2=O)C(=O)N1 (stereo not shown)
60 to 80%

Now consider O=C1CCC(N2Cc3c(ccc4c3OCC43CCN(Cc4ccc(-n5cccn5)cc4)CC3)C2=O)C(=O)N1 (stereo not shown) and answer again.
40 to 60%

Now consider a different molecule.
For IKZF2 (Homo sapiens (Human), UniProt Q96SW2+Q9UKS7), provide Dmax of O=C1CCC(N2Cc3c(ccc4c3OCC43CCN(Cc4cnc(-c5ccccc5)s4)CC3)C2=O)C(=O)N1 (stereo not shown) please.
< 40%

###

Collected DC50 values appear next to each entry.
- target.entity: IKZF2 (Homo sapiens (Human), UniProt Q96SW2+Q9UKS7)
- protocol.details: IKZF2 HiBiT Assay (Jurkat-IKZF2-HiBiT cell line)
- Type: cell-based
- measurement.parameters: Jurkat-IKZF2-HiBiT cells, 24 hours; read-out: HiBit assay degradation analysis DC50

Use the examples below as a reference point.
Look at this molecule and give its reported DC50. O=C1CCC(N2Cc3c(ccc4c3OCC43CCN(Cc4cccc(-n5cncn5)c4)CC3)C2=O)C(=O)N1 (stereo not shown) [Compound A124]
200 to 500 nM

And what about the molecule O=C1CCC(N2Cc3c(ccc4c3OCC43CCN(Cc4ccccc4Cl)CC3)C2=O)C(=O)N1 (stereo not shown) [Compound A214] ?
200 to 500 nM

***
Fill in the blank: the reported DC50 of O=C1CCC(N2Cc3c(ccc4c3OCC43CCN(Cc4nccc5c4CCCC5)CC3)C2=O)C(=O)N1 (stereo not shown) [Compound A324] is ____.
> 500 nM

Also need O=C1CCC(N2Cc3c(ccc4c3OCC43CCN(Cc4ccccc4)CC3)C2=O)C(=O)N1 (stereo not shown) [Compound A8] , thanks.
200 to 500 nM

###

- target.entity: IKZF2 (Homo sapiens (Human), UniProt Q96SW2+Q9UKS7)
- protocol.details: IKZF2 HiBiT Assay (Jurkat-IKZF2-HiBiT cell line)
- Assay type: cell-based
- measurement.parameters: Jurkat-IKZF2-HiBiT cells, 24 hours; read-out: HiBit assay degradation analysis Dmax
quantity: Dmax

Example molecules with recorded Dmax:
Tell me the measured Dmax of O=C1CCC(N2Cc3c(ccc4c3OCC43CCN(Cc4cccc(OC(F)F)c4)CC3)C2=O)C(=O)N1 (stereo not shown) , please.
< 40%

Can you handle Cn1ncc2ccc(CN3CCC4(CC3)COc3c4ccc4c3CN(C3CCC(=O)NC3=O)C4=O)cc21 (stereo not shown) next?
60 to 80%

Follow-up item: O=C1CC[C@H](N2Cc3c(ccc4c3OCC43CCN(Cc4cccc(-c5cnn(CCF)c5)c4)CC3)C2=O)C(=O)N1
60 to 80%

Please answer likewise for O=C1CCC(N2Cc3c(ccc4c3OCC43CCN(Cc4ccn(-c5ccccc5Cl)n4)CC3)C2=O)C(=O)N1 (stereo not shown)
< 40%

---
Report Dmax for CS(=O)(=O)Nc1cccc(CN2CCC3(CC2)COc2c3ccc3c2CN(C2CCC(=O)NC2=O)C3=O)c1 (stereo not shown) please.
40 to 60%

Now try O=C1CC[C@H](N2Cc3c(ccc4c3OCC43CCN(Cc4ccccc4)CC3)C2=O)C(=O)N1 .
40 to 60%

Repeat for the following molecule: O=C1CCC(N2Cc3c(ccc4c3OCC43CCN(Cc4cccc5cnccc45)CC3)C2=O)C(=O)N1 (stereo not shown)
60 to 80%

# iterate: Cn1cc(-c2ccc(CN3CCC4(CC3)COc3c4ccc4c3CN(C3CCC(=O)NC3=O)C4=O)cc2)cn1 (stereo not shown)
60 to 80%

Also need O=C1CCC(N2Cc3c(ccc4c3OCC43CCN(Cc4cccc(CF)c4)CC3)C2=O)C(=O)N1 (stereo not shown) , thanks.
60 to 80%

Check Cc1cccc(CN2CCC3(CC2)COc2c3ccc3c2CN(C2CCC(=O)NC2=O)C3=O)c1 (stereo not shown) too.
60 to 80%

Next: O=C1CCC(N2Cc3c(ccc4c3OCC43CCN(Cc4cnn(-c5ccccc5F)c4)CC3)C2=O)C(=O)N1 (stereo not shown)
< 40%

Request: O=C1CCC(N2Cc3c(ccc4c3OCC43CCN(Cc4n[nH]c5ccccc45)CC3)C2=O)C(=O)N1 (stereo not shown)
40 to 60%

Also O=C1CCC(N2Cc3c(ccc4c3OCC43CCN(Cc4cnn(Cc5cccc(F)c5)c4)CC3)C2=O)C(=O)N1 (stereo not shown) , if possible.
60 to 80%

And what about the molecule Cn1cc2cc(CN3CCC4(CC3)COc3c4ccc4c3CN(C3CCC(=O)NC3=O)C4=O)ccc2n1 (stereo not shown) ?
40 to 60%

Same question for O=C1CC[C@H](N2Cc3c(ccc4c3OCC43CCN(Cc4ccc5c(c4)NC(=O)C5)CC3)C2=O)C(=O)N1 please.
60 to 80%

Record: O=C1CCC(N2Cc3c(ccc4c3OCC43CCN(Cc4ccccc4Oc4ccccc4)CC3)C2=O)C(=O)N1 (stereo not shown)
< 40%

Numbers sourced from patent US20250215012A1.
